B1: TPR 5TU (parent)
chain: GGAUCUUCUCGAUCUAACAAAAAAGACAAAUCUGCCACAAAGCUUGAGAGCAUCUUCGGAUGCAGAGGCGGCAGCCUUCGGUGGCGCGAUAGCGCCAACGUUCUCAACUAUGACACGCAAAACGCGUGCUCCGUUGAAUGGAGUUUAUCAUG

Variants of: B1
run_description: polymerase ribozyme fitness, log enrichment relative to wild type (log ratio); higher = more active; in vitro selection for triplet polymerase activity
Fewer inactive variants are shown than the library holds.
So basically: polymerase ribozyme fitness (log ratio) at -3 or higher? That is True. Lower than -3? That is False.

Known results for variants:
INSERT INTO assay_data (variant_spec, class_label) VALUES
  ('C18G A64C U82G A137G', 'False'),
  ('C5G C85A', 'True'),
  ('C87U A137G', 'True'),
  ('C38U A52G G92A G124U', 'False');

Can G58A G80C be said to have polymerase ribozyme fitness (log ratio) at or above -3? False

Check if polymerase ribozyme fitness (log ratio) >= -3 (inclusive). Item: C93G A142C False

Decide: is the reported value of polymerase ribozyme fitness (log ratio) for C85A G133U equal to or greater than -3? False

Determine whether measured polymerase ribozyme fitness (log ratio) meets or exceeds -3 for C72G G83U G124U G128U G133A U148A False

Evaluate A41U G50U A64U C118G A150C : polymerase ribozyme fitness (log ratio) at minimum -3? False

Is reported polymerase ribozyme fitness (log ratio) greater than or equal to -3 here: C35U C69U A91G C118A False

Given U7G G25C A60G C93U C123U , state whether its polymerase ribozyme fitness (log ratio) is at least -3. False

Reported polymerase ribozyme fitness (log ratio) reaches at least -3 for A28G A37C U55A U90C A91G ? False
